Tested on: Raw264.7 cells
ASSAY_INFO: Cell number (CellNb) from image analysis of the phenotypic cell-based assay
CONDITION_NOTES: primary screen, 20 μM
I'd appreciate it if you could supply Primary QIM CellNb values for the items below.
Answer using only a numeral; do not append any unit.

Note to self: Primary QIM CellNb recorded for CC1=C(Nc2ccc(S(=O)(=O)Nc3nc(C)cc(C)n3)cc2)Sc2ccccc2N1 was 250.8

Note to self: Primary QIM CellNb recorded for CCN1C/C(=C\c2ccc3c(c2)OCO3)C(=O)/C(=C/c2ccc3c(c2)OCO3)C1 was 179.8

Note to self: Primary QIM CellNb recorded for O=C(O)COc1ccccc1/C=N/NC(=O)c1ccncc1 was 374.3

Note to self: Primary QIM CellNb recorded for NNC(=O)c1ccc(COc2ccc(F)cc2)o1 was 490.8

Note to self: Primary QIM CellNb recorded for O=C(N/N=C/C=C/c1ccc([N+](=O)[O-])cc1)c1ccncc1 was 305.0

Note to self: Primary QIM CellNb recorded for CCOc1cc(/C=N/NC(=O)c2ccncc2)ccc1O was 364.0

Note to self: Primary QIM CellNb recorded for O=C(Nc1cccc(C(F)(F)F)c1)Nc1ccc(Cl)c(Cl)c1 was 44.0

Note to self: Primary QIM CellNb recorded for C/C(=N\NOCc1cc([N+](=O)[O-])cc([N+](=O)[O-])c1)c1ccccc1 was 266.0

Note to self: Primary QIM CellNb recorded for CNCCCN1c2ccccc2CCc2ccccc21 was 60.3

Note to self: Primary QIM CellNb recorded for O=C(NN=C1CCCC1)c1ccncc1 was 309.3

Note to self: Primary QIM CellNb recorded for C=C(N/N=C/c1cccc(C)n1)c1nn(Cc2ccc(Br)cc2)cc1Br was 191.5

Note to self: Primary QIM CellNb recorded for CCc1ccc(/C=C(/C#N)C(=O)OC(C)C)s1 was 494.3

Note to self: Primary QIM CellNb recorded for O=C(N/N=C/C=C/c1ccccc1)c1ccncc1 was 276.3

Note to self: Primary QIM CellNb recorded for O=[N+]([O-])c1cc(/C=N/c2ccc(S(=O)(=O)NC3NC=CS3)cc2)c2c(c1)COCO2 (stereo not shown) was 165.3

Note to self: Primary QIM CellNb recorded for O=C(Nc1ccc([N+](=O)[O-])cc1)C12CC3CC(CC(C3)C1)C2 was 372.0

Note to self: Primary QIM CellNb recorded for Cc1ccc(C(=O)NC2CCCCCC2)cc1[N+](=O)[O-] was 290.8

Note to self: Primary QIM CellNb recorded for N=C1S/C(=C/c2ccc([N+](=O)[O-])cc2)C(=O)N1c1nccs1 was 126.3

Note to self: Primary QIM CellNb recorded for CN(C)c1ccc(/N=N/c2ccccc2C(=O)O)cc1 was 48.8

Note to self: Primary QIM CellNb recorded for O=[N+]([O-])c1cc2c(cc1/C=N/c1ccc(S(=O)(=O)Nc3nccs3)cc1)OCO2 was 177.0

Note to self: Primary QIM CellNb recorded for NNC(=O)c1ccc(COc2cc(Cl)ccc2Cl)o1 was 411.8

Note to self: Primary QIM CellNb recorded for CCCCc1ccc(NC(=O)c2ccc([N+](=O)[O-])cc2Cl)cc1 was 152.3

Note to self: Primary QIM CellNb recorded for CN1CCN(NC(=O)c2ccc(COc3ccc(Cl)cc3Cl)o2)CC1 was 135.8

Note to self: Primary QIM CellNb recorded for Cc1nc2c(o1)NC(N)=C(C#N)C2c1c[nH]nc1C (stereo not shown) was 197.8

Note to self: Primary QIM CellNb recorded for CC(C)(C)C(=O)Nc1ccccc1C(=O)N1CCOCC1 was 405.0

Note to self: Primary QIM CellNb recorded for c1ccc(COc2ccc(NCCc3ccncc3)cc2)cc1 was 93.0

Note to self: Primary QIM CellNb recorded for [C-]#[N+]c1ccc(Cl)cc1C(C)S(=O)(=O)c1ccc(C)cc1 (stereo not shown) was 123.3

Note to self: Primary QIM CellNb recorded for O=C(Nc1sc2c(c1C(=O)Nc1ccccc1)CCC2)c1ccccc1Cl was 202.3

Note to self: Primary QIM CellNb recorded for O=S(=O)(Nc1nccs1)c1ccc(/N=C/c2ccccc2O)cc1 was 181.8

Note to self: Primary QIM CellNb recorded for CC(C)c1ccc(/C=N/NC(=O)c2ccncc2)cc1 was 164.0

Note to self: Primary QIM CellNb recorded for Cc1sc(/N=C/c2ccc([N+](=O)[O-])s2)c(C(N)=O)c1C was 155.5

Note to self: Primary QIM CellNb recorded for CCOC(=O)CSc1nc(N)c(C(=O)Nc2ccc(N(C)C)cc2)s1 was 315.5

Note to self: Primary QIM CellNb recorded for O=C(N/N=C/c1ccc[nH]1)c1ccccn1 was 452.5

Note to self: Primary QIM CellNb recorded for O=C(N/N=C/c1ccc(Cl)cc1Cl)c1ccncc1 was 177.8

Note to self: Primary QIM CellNb recorded for COc1cc(/C=N/NC(=O)c2ccncc2)cc(Br)c1OC was 386.0

Note to self: Primary QIM CellNb recorded for CCCOC(=O)C1=C(C)NC2=C(C(=O)CC(c3ccccc3)C2)C1c1cccc(O)c1 (stereo not shown) was 67.3

Note to self: Primary QIM CellNb recorded for O=C(N/N=C/c1ccc(Cl)cc1)c1ccncc1 was 426.8

Note to self: Primary QIM CellNb recorded for CC(/C=N/NC(=O)c1ccncc1)c1ccccc1 (stereo not shown) was 316.5

---

Test system: Raw264.7 cells
CONDITION_NOTES: mouse, 5 days, 20 μM
Range-based classes on measured Primary QIM CellNb: bin A (below 20), bin B (20 to below 100), bin C (100 or more)

## Input Band assignment needed for COc1ccc(OC)c(/C=N/NC(=O)c2ccncc2)c1 please.
## Output bin C

## Input Band assignment needed for Cc1ccc(NC(=O)c2ccc([N+](=O)[O-])cc2Cl)cc1C please.
## Output bin B

## Input Band assignment needed for Cc1nc2c(o1)NC(N)=C(C#N)C2c1c[nH]nc1C (stereo not drawn) please.
## Output bin A

## Input Band assignment needed for CC(/C=N/NC(=O)c1cccc(F)c1)c1ccccc1 (stereo not drawn) please.
## Output bin B

## Input Band assignment needed for CC(Oc1cccc2ccccc12)C(=O)NNC(=O)c1cc2ccccc2oc1=O (stereo not drawn) please.
## Output bin A

## Input Band assignment needed for N#Cc1cc(Br)c([N+](=O)[O-])cc1C#N please.
## Output bin A

## Input Band assignment needed for CCN1C/C(=C\c2ccc3c(c2)OCO3)C(=O)/C(=C/c2ccc3c(c2)OCO3)C1 please.
## Output bin A

## Input Band assignment needed for Oc1ccc(Br)cc1/C=N/c1ccccc1O please.
## Output bin A

## Input Band assignment needed for O=C(N/N=C/c1cc([N+](=O)[O-])ccc1O)c1ccncc1 please.
## Output bin B

## Input Band assignment needed for O=C(O)COc1ccccc1/C=N/NC(=O)c1ccncc1 please.
## Output bin C

## Input Band assignment needed for O=C(NC12CC3CC(CC(C3)C1)C2)c1ccc([N+](=O)[O-])cc1 please.
## Output bin B

## Input Band assignment needed for CC(/C=N/NC(=O)c1ccccn1)=C\c1ccco1 please.
## Output bin B

## Input Band assignment needed for O=C(Nc1sc2c(c1C(=O)Nc1ccccc1)CCC2)c1cccs1 please.
## Output bin B

## Input Band assignment needed for Oc1ccccc1/N=C/c1cc(Br)cc(Br)c1O please.
## Output bin B

## Input Band assignment needed for O=[N+]([O-])c1cc(Br)cc(/C=N/c2ccccc2O)c1O please.
## Output bin B

## Input Band assignment needed for O=C1CSC(N/N=C/c2cc([N+](=O)[O-])ccc2O)N1 (stereo not drawn) please.
## Output bin B

## Input Band assignment needed for CCOc1cc(/C=N/NC(=O)c2ccncc2)ccc1O please.
## Output bin C

## Input Band assignment needed for O=C(Nc1cc(Cl)cc(Cl)c1)c1ccc([N+](=O)[O-])cc1Cl please.
## Output bin B

## Input Band assignment needed for O=S(=O)(Nc1nccs1)c1ccc(/N=C/c2ccccc2O)cc1 please.
## Output bin A

---

Test system: M. tuberculosis H37Rv-GFP
ASSAY_INFO: microbe, parasite or virus in culture
Format: cell-based, Mycobacterium tuberculosis
CONDITION_NOTES: Mycobacterium tuberculosis, H37RV, Macrophage; confirmation, 0.2 uM, intracellular; read-out: QIM Confirm % Inhibition 0.2 uM
Use 30% as the dividing line for inhibition at 0.2 µM, with the line itself on the met side and lower values as not met.

## Input Assess whether reported inhibition at 0.2 µM for O=C(NN=C1CCCCC1)c1ccncc1 [IPK 000 013 72] sits at 30% or higher.
## Output met

## Input Assess whether reported inhibition at 0.2 µM for O=C(N/N=C/c1ccccc1F)c1ccncc1 [IPK 000 013 71] sits at 30% or higher.
## Output met

## Input Assess whether reported inhibition at 0.2 µM for O=C(Oc1cccc2cccnc12)c1cccc([N+](=O)[O-])c1 [IPK 000 018 66] sits at 30% or higher.
## Output not met

## Input Assess whether reported inhibition at 0.2 µM for Brc1ccc(/C=N/Nc2nc(N3CCOCC3)nc(N3CCOCC3)n2)o1 [IPK 000 011 65] sits at 30% or higher.
## Output not met
